# SYSTEM_TESTED: SALL4 ZFC4 WT (HT-SELEX) (Mus musculus, UniProt Q8BX22 870-940)
# Sequence: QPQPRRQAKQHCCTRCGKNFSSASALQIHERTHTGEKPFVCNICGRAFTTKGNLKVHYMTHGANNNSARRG
# TEST_DETAILS: HT-SELEX; high values mean tight binding
# TEST_CONDITIONS: protein: recombinant; vector His6-GST; dsDNA, one strand shown
RESULT_TYPE: binding signal (fold-change vs cycle 0)
Please respond with the number in fold-change vs cycle 0 and leave the unit unwritten.

GET /value?item= `AACAAA` &field=binding signal returns 1.75

GET /value?item= `AAGGTG` &field=binding signal returns 0.806

GET /value?item= `CTCGTC` &field=binding signal returns 0.385

GET /value?item= `CAAGTG` &field=binding signal returns 0.791

GET /value?item= `AAGCTA` &field=binding signal returns 1.18

GET /value?item= `CACTTC` &field=binding signal returns 0.777

GET /value?item= `AATGCT` &field=binding signal returns 1.15

GET /value?item= `CGAACA` &field=binding signal returns 0.588

GET /value?item= `ACCAGC` &field=binding signal returns 0.312

GET /value?item= `TGAGAA` &field=binding signal returns 1.37

GET /value?item= `TAGTAA` &field=binding signal returns 2.21

GET /value?item= `CATGAA` &field=binding signal returns 1.36

GET /value?item= `AACTAC` &field=binding signal returns 1.27

GET /value?item= `CATCTC` &field=binding signal returns 0.879

GET /value?item= `ATCAGC` &field=binding signal returns 0.664

GET /value?item= `ACCTCC` &field=binding signal returns 0.552

GET /value?item= `GCAGGA` &field=binding signal returns 0.338

GET /value?item= `AGTAAA` &field=binding signal returns 1.96

GET /value?item= `GTTGTA` &field=binding signal returns 1.18

GET /value?item= `AGAAAT` &field=binding signal returns 2.29
